Target Of Assay: Pro-neuregulin-1, membrane-bound isoform (Homo sapiens) (UniProt Q02297)
Sequence (Q02297 whole entry, looked up, canonical isoform): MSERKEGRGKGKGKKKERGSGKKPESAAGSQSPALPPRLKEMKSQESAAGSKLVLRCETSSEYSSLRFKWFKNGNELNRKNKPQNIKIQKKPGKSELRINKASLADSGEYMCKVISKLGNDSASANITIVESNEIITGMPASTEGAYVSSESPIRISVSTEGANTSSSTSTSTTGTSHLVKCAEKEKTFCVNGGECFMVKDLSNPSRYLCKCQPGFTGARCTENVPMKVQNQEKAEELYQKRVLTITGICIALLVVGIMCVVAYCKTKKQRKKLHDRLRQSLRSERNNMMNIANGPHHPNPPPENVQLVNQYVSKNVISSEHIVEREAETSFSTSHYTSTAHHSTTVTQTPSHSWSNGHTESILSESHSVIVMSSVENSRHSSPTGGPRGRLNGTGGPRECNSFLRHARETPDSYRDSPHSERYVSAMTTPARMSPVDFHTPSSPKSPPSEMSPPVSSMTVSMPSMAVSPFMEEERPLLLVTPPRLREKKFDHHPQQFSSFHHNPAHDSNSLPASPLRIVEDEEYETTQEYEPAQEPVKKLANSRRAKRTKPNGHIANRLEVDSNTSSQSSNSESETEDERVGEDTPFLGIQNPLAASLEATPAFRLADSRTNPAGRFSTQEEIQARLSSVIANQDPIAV
Protocol Summary: NRG1 binders on small-molecule microarrays, primary screen, psychiatric disease protein project, biochemical, small-molecule microarray, fluorescence 635/667 (AID 1075);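 further: score combines 667 nm spot fluorescence with signal to noise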
Condition Label: NRG1 binding, 635 nm fluorescence, higher = more signal
Threshold check on composite z-score: at or above 0.1 gives label 1, strictly below gives label 0.

Could you tell me if the measured composite z-score of COCCOC(=O)N1C(=O)[C@@]2(c3cc(C#CCC(C(=O)OC)C(=O)OC)ccc31)[C@H](c1ccc(OCCO)cc1)N1[C@H](c3ccccc3)[C@H](c3ccccc3)OC(=O)[C@H]1[C@@H]2C(=O)Nc1nc2ccccc2s1 reaches 0.1 or more? label 0

Could you tell me if the measured composite z-score of O=C1C2C=CC(C(O)c3cc(C(F)(F)F)cc(C(F)(F)F)c3)N(Nc3ccccc3F)C2C(=O)N1c1ccccc1 (stereo unspecified) reaches 0.1 or more? label 1

Could you tell me if the measured composite z-score of NC(=O)NCC#Cc1ccc2c(c1)[C@]1(C(=O)N2)[C@H](C(=O)N2CCN(c3ncccn3)CC2)[C@H]2C(=O)O[C@H](c3ccccc3)[C@H](c3ccccc3)N2[C@@H]1c1ccc(OCCO)cc1 reaches 0.1 or more? label 1

Could you tell me if the measured composite z-score of CCOC(=O)C1=CCC(c2ccccc2)N(S(=O)(=O)c2ccc([N+](=O)[O-])cc2)C1 (stereo unspecified) reaches 0.1 or more? label 0

Could you tell me if the measured composite z-score of CC(C)[C@H]1NC(=O)[C@@]23C(=O)N[C@@H](Cc4ccccc4)C2[C@H](C)[C@@]2(C)O[C@H]2C3/C=C/CCC/C=C/CNC(=O)[C@H](Cc2ccccc2)NC1=O (stereo partly specified) reaches 0.1 or more? label 1

Could you tell me if the measured composite z-score of CO[C@H]1O[C@H](CO)[C@@H](OC(=O)c2ccc(Br)cc2)[C@@H]2OC(=O)[C@H](Cc3ccccc3)C/C=C/C[C@@H](Cc3ccccc3)C(=O)O[C@@H]12 reaches 0.1 or more? label 1

---

Protocol Summary: binders of probe aHhip on microarray, primary screen, stem cell growth factor project, biochemical, small-molecule microarray, fluorescence 635/667 (AID 1087);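 further: score merges spot fluorescence at 667nm with spot signal to noise ratio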
Condition Label: higher = more signal
For each of the compounds below, state its composite z-score.
// no unit string in output, number only

Answer with the recorded composite z-score of CC1CC/C=C\[C@H]2OC34C=CCN(C(C)(C)C)C(=O)[C@H]3N(C(CO)C(C)C)C(=O)[C@@H]4C2C(=O)O1 (some centres undefined) only. -0.318

Answer with the recorded composite z-score of [N-]=[N+]=NCc1ccccc1[C@H]1OC(c2ccc(OCCCO)cc2)=N[C@@]1(CCS(=O)(=O)c1ccccc1)C(=O)NCc1ccccc1 only. 1.05

Answer with the recorded composite z-score of Cc1c(NC(=O)/C(C#N)=C/c2ccccc2Cl)c(=O)n(-c2ccccc2)n1C only. -0.139

Answer with the recorded composite z-score of Cc1ccc(S[C@]2(C(=O)NC(C)C)CC(=O)N(Cc3ccccc3Cl)[C@@H]2c2ccc(CO)cc2)cc1 only. -0.169

---

Target Of Assay: Calmodulin-1 (Homo sapiens)
Protocol Summary: CALM1 binders on microarrays, EGTA buffer, profiling panel, biochemical, small-molecule microarray, Cy5-labelled CALM1 (AID 1111);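 further: labelled calmodulin applied in Tris saline Tween buffer holding calcium plus EGTA and DTT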
Condition Label: Cy5-CALM1 binding fluorescence, higher = more signal
For each of the compounds below, state its composite z-score.
// no unit string in output, number only

Answer with the recorded composite z-score of C=CC1c2cc(O)c(OC)cc2CCN1Cc1ccc([N+](=O)[O-])o1 (configuration not stated) only. 1.15

Answer with the recorded composite z-score of C[C@]1(C(=O)O)c2ccccc2C(=O)N(Cc2ccc(OC(F)(F)F)cc2)[C@H]1c1ccc(CO)cc1 only. 1.03

Answer with the recorded composite z-score of COCCOC(=O)N1C(=O)[C@@]2(c3cc(C#CCC(C(=O)OC)C(=O)OC)ccc31)[C@H](C(=O)NC[C@H](O)c1ccccc1)[C@H]1C(=O)O[C@H](c3ccccc3)[C@H](c3ccccc3)N1[C@@H]2c1ccc(O)cc1 only. 1.65

Answer with the recorded composite z-score of CC(C)(C)OC(=O)CC[C@]1(C(=O)N2CCCCC2)COC(c2ccc(OCCCO)cc2)=N1 only. 1.4

Answer with the recorded composite z-score of COC(=O)[C@@]1(Cc2ccc(OC)cc2)[C@H]2c3cc(C(=O)N4CCCC4)n(Cc4ccc(S(C)(=O)=O)cc4)c3C[C@H]2CN1C(=O)c1ccccc1 only. 2.06

Answer with the recorded composite z-score of COCCOC(=O)N1C(=O)[C@@]2(c3ccccc31)[C@H](c1ccccc1OCCO)N1[C@H](c3ccccc3)[C@H](c3ccccc3)OC(=O)[C@H]1[C@@H]2C(N)=O only. 1.93

Answer with the recorded composite z-score of [N-]=[N+]=NCc1ccccc1[C@H]1OC(c2ccc(OCCCO)cc2)=N[C@@]1(CCS(=O)(=O)c1ccccc1)C(=O)NCc1ccccc1 only. 1.65
